# TEST_DESCRIPTION: qHTS assay to test for compound auto fluorescence at 590 nm (red) in HEK293 cell free culture (AID 720683)
# CONDITION_DESCRIPTION: cell-free medium autofluorescence, Ex540/Em590 red; series mostly up to 91.3 µM
Calls of active or inactive are those of the source. Calls come from the whole dose curve; as a rule, active = well fitted curve in the direction sought with a large enough effect in the repeat runs; inconclusive = weak or mixed curves; inactive = flat fitted curve, though single readings scatter.
PROPERTY_MEASURED: outcome

Use these answered entries as a reference point.
-- ask Identify measured outcome associated with `CC(=O)[C@@]1(O)CC[C@H]2[C@@H]3C[C@H](C)C4=CC(=O)C=C[C@]4(C)[C@@]3(F)[C@@H](O)C[C@@]21C`
-- reply inactive

-- ask Identify measured outcome associated with C=CC(C)(O)CCC=C(C)C (stereo not given)
-- reply inactive

-- ask Identify measured outcome associated with `C=C[C@@]1(C)CC(=O)[C@]2(O)[C@@]3(C)[C@@H](O)CCC(C)(C)[C@@H]3[C@H](O)[C@H](OC(C)=O)[C@@]2(C)O1`
-- reply inactive

-- ask Identify measured outcome associated with `Cc1ccc(S(=O)(=O)O)cc1C`
-- reply inactive

New cases:
-- ask Identify measured outcome associated with `C=C[C@H]1CN2CC[C@H]1C[C@H]2[C@H](O)c1ccnc2ccc(OC)cc12`
-- reply inactive

----------
# TGT: Aryl hydrocarbon receptor (Homo sapiens)
# TEST_DESCRIPTION: qHTS assay to identify small molecule that activate the aryl hydrocarbon receptor (AhR) signaling pathway (AID 743085); note: nearly all actives have a fitted effect of over 15% in size;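 for activation: HG2L7.5c1 human HepG2 liver cells with stably integrated DRE-driven firefly reporter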
# CONDITION_DESCRIPTION: HepG2 AhR-luc (HG2L7.5c1), luciferase, 24 h; series mostly up to 70.3 µM
Records with an inconclusive call do not appear. Active and inactive are the calls of the source. Calls follow the shape of the dose curve; as a rule, active = well fitted activation curve with a large enough effect in the repeat runs; inconclusive = weak or mixed curves; inactive = no such curve, though single readings can be large or run the other way.
Please answer using one outcome listed in y = active, n = inactive

-- ask // outcome(item) with item = `C[C@]12C=CC(=O)C=C1CC[C@H]1[C@@H]3C[C@@H](O)[C@](O)(C(=O)CO)[C@@]3(C)C[C@H](O)[C@@]12F`
-- reply n

-- ask // outcome(item) with item = CCCCCCCCCCC(CO)CCCCCCCC (stereo unspecified)
-- reply n

-- ask // outcome(item) with item = `C=C[Si](OCCOC)(OCCOC)OCCOC`
-- reply n

-- ask // outcome(item) with item = `Nc1ccc2c(O)cc(S(=O)(=O)O)cc2c1`
-- reply n

-- ask // outcome(item) with item = `O=C(O)CCCC(=O)O`
-- reply n

-- ask // outcome(item) with item = `CCCCCCOCCOCCO`
-- reply n

-- ask // outcome(item) with item = `NCCS(=O)(=O)O`
-- reply n

-- ask // outcome(item) with item = `COC(=O)c1ccc(C)cc1`
-- reply n

-- ask // outcome(item) with item = CC1(C)C(C=C(Cl)Cl)C1C(=O)OCc1cccc(Oc2ccccc2)c1 (stereo unspecified)
-- reply n

-- ask // outcome(item) with item = `OC[C@H]1O[C@@H]2O[C@H]3[C@H](O)[C@@H](O)[C@@H](O[C@H]4[C@H](O)[C@@H](O)[C@@H](O[C@H]5[C@H](O)[C@@H](O)[C@@H](O[C@H]6[C@H](O)[C@@H](O)[C@@H](O[C@H]7[C@H](O)[C@@H](O)[C@@H](O[C@H]1[C@H](O)[C@H]2O)O[C@@H]7CO)O[C@@H]6CO)O[C@@H]5CO)O[C@@H]4CO)O[C@@H]3CO`
-- reply n

-- ask // outcome(item) with item = `c1ccc2ncccc2c1`
-- reply n

-- ask // outcome(item) with item = `C=CC(=O)OCCCC`
-- reply n

-- ask // outcome(item) with item = `COc1cc([C@H]2Oc3cc([C@H]4Oc5cc(O)cc(O)c5C(=O)[C@@H]4O)ccc3O[C@@H]2CO)ccc1O`
-- reply n

-- ask // outcome(item) with item = `CC(=O)OC(C)C`
-- reply n

-- ask // outcome(item) with item = `OCCNCCO`
-- reply n

-- ask // outcome(item) with item = `CCCCCCCC/C=C\CCCCCCCC(=O)O`
-- reply n

-- ask // outcome(item) with item = `O=C(O)CCCCCCCCCCCC(=O)O`
-- reply n

-- ask // outcome(item) with item = `CC(=O)[C@@]1(O)CC[C@H]2[C@@H]3C[C@H](C)C4=CC(=O)C=C[C@]4(C)[C@@]3(F)[C@@H](O)C[C@@]21C`
-- reply n

-- ask // outcome(item) with item = `O=S1(=O)CCCO1`
-- reply n

-- ask // outcome(item) with item = `[O-]/[N+](=N\O)c1ccccc1`
-- reply y

-- ask // outcome(item) with item = CCc1cccc2c3c([nH]c12)C(CC)(CC(=O)O)OCC3 (stereo unspecified)
-- reply n

-- ask // outcome(item) with item = `O=C(O)c1cc(=O)[nH]c(=O)[nH]1`
-- reply n

-- ask // outcome(item) with item = `Cc1ccc([N+](=O)[O-])c(C)c1`
-- reply n

-- ask // outcome(item) with item = CCC(Cc1c(I)cc(I)c(N)c1I)C(=O)O (stereo unspecified)
-- reply n

-- ask // outcome(item) with item = `Cc1ccc(C(C)(C)C)cc1`
-- reply n

-- ask // outcome(item) with item = `CC(C)(Oc1ccc(Cl)cc1)C(=O)O`
-- reply n

-- ask // outcome(item) with item = COC(=O)C(C)Oc1ccc(Oc2ncc(C(F)(F)F)cc2Cl)cc1 (stereo unspecified)
-- reply n

-- ask // outcome(item) with item = `Cc1ccc(S(=O)(=O)O)cc1C`
-- reply n

-- ask // outcome(item) with item = `Cc1ccc(C(C)(C)C)c(O)c1`
-- reply n

-- ask // outcome(item) with item = `C1CN(SSN2CCOCC2)CCO1`
-- reply n

-- ask // outcome(item) with item = `Nc1cc([N+](=O)[O-])ccc1C(=O)O`
-- reply y

-- ask // outcome(item) with item = `[Na+]`
-- reply n

-- ask // outcome(item) with item = `CC(=O)Nc1ccc2c(c1)Cc1cc(NC(C)=O)ccc1-2`
-- reply n

-- ask // outcome(item) with item = `C1COCCN1`
-- reply n

-- ask // outcome(item) with item = `CC(=O)O[C@]1(C(C)=O)CC[C@H]2[C@@H]3C=C(Cl)C4=CC(=O)CC[C@]4(C)[C@H]3CC[C@@]21C`
-- reply n

-- ask // outcome(item) with item = `O=Cc1ccccc1C=O`
-- reply n

-- ask // outcome(item) with item = `CN(C)/N=N/c1nc[nH]c1C(N)=O`
-- reply n

-- ask // outcome(item) with item = `C=CCCCCCCCCCC`
-- reply n

-- ask // outcome(item) with item = `CNC[C@H](O)c1ccc(O)c(O)c1`
-- reply n

-- ask // outcome(item) with item = `C=CCNCC=C`
-- reply n

-- ask // outcome(item) with item = `O=C(O)c1ccc(O)cc1`
-- reply n

-- ask // outcome(item) with item = `CC/C=C\C/C=C\C/C=C\CCCCCCCC(=O)O`
-- reply n

-- ask // outcome(item) with item = `CC(C)(C)c1cccc(C(C)(C)C)c1O`
-- reply n

-- ask // outcome(item) with item = `C[N+](C)(C)CCO`
-- reply n

-- ask // outcome(item) with item = `CC(=O)Oc1ccc(C(c2ccc(OC(C)=O)cc2)c2ccccn2)cc1`
-- reply n

-- ask // outcome(item) with item = `C=C[C@@]1(C)CC(=O)[C@]2(O)[C@@]3(C)[C@@H](O)CCC(C)(C)[C@@H]3[C@H](O)[C@H](OC(C)=O)[C@@]2(C)O1`
-- reply n

-- ask // outcome(item) with item = `CCO[Si](CCCNC(N)=O)(OCC)OCC`
-- reply n

-- ask // outcome(item) with item = `c1ccc2c(c1)[nH]c1ccccc12`
-- reply n

-- ask // outcome(item) with item = `CCCCCC=O`
-- reply n

-- ask // outcome(item) with item = `COCCOCCOCCO`
-- reply n

-- ask // outcome(item) with item = `CC1(C)OC(=O)NC1=O`
-- reply n

----------
# TGT: Progesterone receptor (Homo sapiens)
# TEST_DESCRIPTION: qHTS assay to identify small molecule agonists of the progesterone receptor (PR) signaling pathway (AID 1346784); note: nearly all actives have a fitted effect of over 30% in size
# CONDITION_DESCRIPTION: PR-UAS-bla HEK293T, beta-lactamase FRET ratio, 16 h; series mostly up to 92.4 µM
# Excerpt: U.S. Tox21 Program National Center for Advancing Translational Sciences [NCATS] NIH Chemical Genomics Center [NCGC] U.S. Environmental Protection Agency [EPA] National Institutes of Environmental Health Sciences [NIEHS] National Toxicology Program [NTP] U.S. Food and Drug Administration [FDA] […] Endocrine disrupting chemicals (EDCs) and their interactions with steroid hormone receptors like PR causes disruption of normal endocrine function. […]
Results filed as inconclusive are left out. Calls of active or inactive are those of the source. Calls follow the shape of the full dose curve.
Please answer using one outcome listed in active, inactive

-- ask // outcome(item) with item = `COc1ccc(C(=O)c2ccccc2O)c(O)c1`
-- reply inactive

-- ask // outcome(item) with item = `NCCOCCO`
-- reply inactive

-- ask // outcome(item) with item = `Cc1ccc(/C(=C\CN2CCCC2)c2ccccn2)cc1`
-- reply inactive

-- ask // outcome(item) with item = `COc1ccc(-c2coc3cc(O)cc(O)c3c2=O)cc1`
-- reply inactive

-- ask // outcome(item) with item = `NCCS(=O)(=O)O`
-- reply inactive

-- ask // outcome(item) with item = `CC(=O)O[C@]1(C(C)=O)CC[C@H]2[C@@H]3C=C(C)C4=CC(=O)CC[C@]4(C)[C@H]3CC[C@@]21C`
-- reply active

-- ask // outcome(item) with item = `Cc1ccc(S(=O)(=O)NCl)cc1`
-- reply inactive

-- ask // outcome(item) with item = CCOC(=O)C(C)Oc1ccc(Oc2cnc3cc(Cl)ccc3n2)cc1 (configuration not stated)
-- reply inactive

-- ask // outcome(item) with item = `Cc1ccc2c(c1)C(=O)OC2=O`
-- reply inactive

-- ask // outcome(item) with item = `c1ccc2c(c1)ccc1cc3c(ccc4ccccc43)cc12`
-- reply inactive

-- ask // outcome(item) with item = `c1ccc2ncccc2c1`
-- reply inactive

-- ask // outcome(item) with item = `COc1cc([C@H]2Oc3cc([C@H]4Oc5cc(O)cc(O)c5C(=O)[C@@H]4O)ccc3O[C@@H]2CO)ccc1O`
-- reply inactive
